Test system: NCI-H226 lung
MEASUREMENT_PROTOCOL: NCI-60 one-dose screen, 48 h
APPLIED_CONDITIONS: 10 µM
This is part of a sample that, as a whole, favours compounds with a hit. Of some 83,000 tested, about 20% had one in any assay. Active and inactive are the calls of the source. How the source made its calls: active means growth percent below 10; inactive means the rest.
Labels: T for active, F for inactive

- COMPOUND: "COc1cc(-c2nc3ccccc3[nH]2)ccc1OCC(=O)N=Nc1c(O)[nH]c2ccccc12"
  GROUP_LABEL: "F"
- COMPOUND: "C[C@@H]1N=C(c2ccc(Br)cc2)Nc2nc3ccccn3c2C1=O"
  GROUP_LABEL: "F"
- COMPOUND: "O=C(O)CCCN1C(=O)NC2(C1=O)c1ccccc1-c1ccccc12"
  GROUP_LABEL: "F"
- COMPOUND: "NC1CCC(Nc2nc(NCc3ccc(-c4ccco4)nc3)c3ncn(C4CCCC4)c3n2)CC1 (stereo not given)"
  GROUP_LABEL: "T"
- COMPOUND: "COc1ccc(-c2nnc(SC/C(=N\\O)c3ccccc3)o2)cc1"
  GROUP_LABEL: "F"
